Test system: T-47D Tam1
experiment notes: drug sensitivity score (DSS) (DSS (dimensionless)); higher = more sensitive; extreme values may be limits of the assay
condition: 4-OH-tamoxifen in medium 1 µM; 72 h
measure: drug sensitivity score
Answer field: number only, no words.

Some solved entries appear below for comparison.
C=C1C[C@@H]2[C@H](CC[C@]3(C)C(=O)CC[C@@H]23)[C@@]2(C)C=CC(=O)C=C12    0
CC[C@@H]1C(=O)OC[C@@H]1Cc1cncn1C    0
COc1cc2c(Oc3ccc(NC(=O)C4(C(=O)Nc5ccc(F)cc5)CC4)cc3F)ccnc2cc1OCCCN1CCOCC1    0.595
Nc1cc(C(F)(F)F)c(-c2cc(N3CCOCC3)nc(N3CCOCC3)n2)cn1    9.5

Form field: reported drug sensitivity score of CCc1c2c(nc3ccc(OC(=O)N4CCC(N5CCCCC5)CC4)cc13)-c1cc3c(c(=O)n1C2)COC(=O)[C@]3(O)CC 2.72

What value of measured drug sensitivity score is listed for C[C@]12CC[C@H](O)CC1=CC[C@@H]1[C@@H]2CC[C@]2(C)C(c3cccnc3)=CC[C@@H]12 ? 0

Quick one: drug sensitivity score for Nc1nc(F)nc2c1ncn2[C@@H]1O[C@H](CO)[C@@H](O)[C@@H]1O ? 2.13

---

As shown below, each of these compounds has a reported relative IC50 value.
Test system: BT-474 Tam1
experiment notes: relative IC50 (midpoint of fitted logistic curve, plateau may be below 50% inhibition; CellTiter-Glo viability); higher = less potent
condition: 4-OH-tamoxifen in medium 1 µM; 72 h
Please give the number followed by its unit.

CN(C)CCOc1ccc(/C(=C(/CCCl)c2ccccc2)c2ccccc2)cc1 [Toremifene (citrate)]    3410 nM
Cc1c2oc3c(C)ccc(C(=O)N[C@@H]4C(=O)N[C@H](C(C)C)C(=O)N5CCC[C@H]5C(=O)N(C)CC(=O)N(C)[C@@H](C(C)C)C(=O)O[C@@H]4C)c3nc-2c(C(=O)N[C@@H]2C(=O)N[C@H](C(C)C)C(=O)N3CCC[C@H]3C(=O)N(C)CC(=O)N(C)[C@@H](C(C)C)C(=O)O[C@@H]2C)c(N)c1=O    18.9 nM
COCC[n+]1c2c(n(Cc3cnccn3)c1C)C(=O)c1ccccc1C2=O    218 nM

Turning to the following compound.
Return reported relative IC50; argument: CC(=O)OC[C@H]1O[C@@H]([S-])[C@H](OC(C)=O)[C@@H](OC(C)=O)[C@@H]1OC(C)=O.CCP(CC)CC.[Au+] 853 nM

---

System: T-47D Tam2
experiment notes: viability inhibition at highest dose (% inhibition); higher = more growth inhibition
condition: 4-OH-tamoxifen in medium 1 µM; 72 h
# yes = viability inhibition at highest dose below 30 (exclusive); no = viability inhibition at highest dose at/above 30

COc1cccc2cc(-c3nc([C@H]4CC[C@H](C(=O)O)CC4)n4ncnc(N)c34)[nH]c12 [OSI-027] (drug 10000 nM)    no

Is viability inhibition at highest dose strictly under 30 for the entry CC(C)(C#N)c1cc(Cn2cncn2)cc(C(C)(C)C#N)c1 [Anastrozole] (drug 10000 nM) ? yes

I'd appreciate it if you could check whether COc1c2occc2cc2ccc(=O)oc12 [Methoxsalen] (drug 10000 nM) has viability inhibition at highest dose smaller than 30. yes

hey, is viability inhibition at highest dose for Cn1cncc1[C@@](N)(c1ccc(Cl)cc1)c1ccc2c(c1)c(-c1cccc(Cl)c1)cc(=O)n2C [Tipifarnib (Zarnestra)] (drug 10000 nM) lower than 30 or not? no

viability inhibition at highest dose strictly < 30 for this molecule? COc1cc(Nc2ncc(F)c(Nc3ccc4c(n3)N(COP(=O)(O)O)C(=O)C(C)(C)O4)n2)cc(OC)c1OC (drug 10000 nM) no

Is viability inhibition at highest dose of C=CC(=O)N1CCC[C@@H](n2nc(-c3ccc(Oc4ccccc4)cc3)c3c(N)ncnc32)C1 (drug 1000 nM) strictly below 30? yes

Check if viability inhibition at highest dose falls below 30 for CCN1CCN(c2ccc(Nc3cc(N(C)C(=O)Nc4c(Cl)c(OC)cc(OC)c4Cl)ncn3)cc2)CC1 [NVP-BGJ398] (drug 1000 nM) . yes

Lab note: viability inhibition at highest dose threshold 30. Does this molecule come in strictly under it? Cn1cnc2c(F)c(Nc3ccc(Br)cc3F)c(C(=O)NOCCO)cc21 [MEK-162 (ARRY-162)] (drug 1000 nM) yes

Lab log: compare recorded viability inhibition at highest dose with 30; is it strictly lower for COC1=CC(c2cc3ccccc3[nH]2)=N/C1=C\c1[nH]c(C)cc1C [Obatoclax (GX15-070)] (drug 10000 nM) ? no

Problem: For the molecule COc1cccc2c1C(=O)c1c(O)c3c(c(O)c1C2=O)C[C@@](O)(C(=O)CO)C[C@@H]3O[C@H]1C[C@H](N)[C@H](O)[C@H](C)O1 [Doxorubicin] (drug 1000 nM) , is viability inhibition at highest dose under 30? no

# TODO verify viability inhibition at highest dose < 30 strictly for this molecule: CC[C@@H]1C(=O)N(C)c2cnc(Nc3ccc(C(=O)N[C@H]4CC[C@H](N5CCN(CC6CC6)CC5)CC4)cc3OC)nc2N1C(C)C [Volasertib (BI 6727)] (drug 1000 nM) yes

Does the reported viability inhibition at highest dose of the following molecule sit strictly below 30? Cn1cnc2c(F)c(Nc3ccc(Br)cc3Cl)c(C(=O)NOCCO)cc21 [Selumetinib (AZD6244)] (drug 10000 nM) yes

---

Tested on: MCF-7
experiment notes: viability inhibition at highest dose (% inhibition); higher = more growth inhibition
condition: 4-OH-tamoxifen in medium 0 µM; 72 h
# True = viability inhibition at highest dose below 30 (exclusive); False = viability inhibition at highest dose at/above 30

The following molecules have reported results that may help.
CS(=O)(=O)OCCCCOS(C)(=O)=O [Busulfan] (drug 100000 nM)    True
c1cc(CN2CCCNCCNCCCNCC2)ccc1CN1CCCNCCNCCCNCC1 [Plerixafor] (drug 2500 nM)    True
CN(C)/N=N/c1[nH]cnc1C(N)=O [Dacarbazine] (drug 10000 nM)    True
COc1ccccc1S(=O)(=O)Nc1ccc2c(c1)CN(C)C(=O)N2 [PFI-1] (drug 10000 nM)    False
CS(=O)(=O)CCNCc1ccc(-c2ccc3ncnc(Nc4ccc(OCc5cccc(F)c5)c(Cl)c4)c3c2)o1 [Lapatinib] (drug 1000 nM)    True

I wonder whether COc1cc(Nc2c(C#N)cnc3cc(OCCCN4CCN(C)CC4)c(OC)cc23)c(Cl)cc1Cl [Bosutinib] (drug 10000 nM) has viability inhibition at highest dose below 30. Can you tell? False

Is viability inhibition at highest dose of COc1c2occc2cc2ccc(=O)oc12 [Methoxsalen] (drug 10000 nM) strictly below 30? True

---

Test system: MCF-7
experiment notes: drug sensitivity score (DSS) (DSS (dimensionless)); higher = more sensitive; extreme values may be limits of the assay
condition: 4-OH-tamoxifen in medium 0 µM; 72 h
Counter-ions that a name gives are not always drawn.
measure: drug sensitivity score
// response body must contain only the number

Worked set:
O=C1CN2Cc3c(ccc(Cl)c3Cl)N=C2N1 [Anagrelide]    0
O=C(c1cc(Cc2n[nH]c(=O)c3ccccc23)ccc1F)N1CCN(C(=O)C2CC2)CC1    0
CN1CCN(c2ccc3nc(-c4c(N)c5c(F)cccc5[nH]c4=O)[nH]c3c2)CC1    0
O=C(O)C(=O)O.[NH-][C@@H]1CCCC[C@H]1[NH-].[Pt+2]    0
O=P(O)(O)C(O)(Cn1ccnc1)P(=O)(O)O    0
CC(=O)O[C@@]12CO[C@@H]1C[C@H](O)[C@@]1(C)C(=O)[C@H](O)C3=C(C)[C@@H](OC(=O)[C@H](O)[C@@H](NC(=O)OC(C)(C)C)c4ccccc4)C[C@@](O)([C@@H](OC(=O)c4ccccc4)[C@H]21)C3(C)C    7.56
C[C@]12C=CC(=O)C=C1CC[C@@H]1[C@@H]2C(=O)C[C@@]2(C)[C@H]1CC[C@]2(O)C(=O)CO    0
O=C1CCC(N2C(=O)c3ccccc3C2=O)C(=O)N1 (stereo not given) [Thalidomide]    0

Entry under review: CCNC(=O)c1noc(-c2cc(C(C)C)c(O)cc2O)c1-c1ccc(CN2CCOCC2)cc1 . Reported drug sensitivity score? 16.7

Look at this compound and give its reported drug sensitivity score. CC/C(=C(\c1ccccc1)c1ccc(OCCN(C)C)cc1)c1ccccc1 [Tamoxifen citrate] 0

GET /values?readout=drug sensitivity score&item= Cc1ccc(NC(=O)c2ccc(CN3CCN(C)CC3)cc2)cc1Nc1nc(-c2cccnc2)cs1 3.51

Data request, read-out drug sensitivity score, for CC1(C)CCC(c2ccc(Cl)cc2)=C(CN2CCN(c3ccc(C(=O)NS(=O)(=O)c4ccc(N[C@H](CCN5CCOCC5)CSc5ccccc5)c(S(=O)(=O)C(F)(F)F)c4)cc3)CC2)C1 1.6

Dear colleague, I am looking for the recorded drug sensitivity score of the following compound: COC1=CC(c2cc3ccccc3[nH]2)=N/C1=C\c1[nH]c(C)cc1C 2

Name the reported drug sensitivity score value associated with the compound Nc1nc(F)nc2c1ncn2[C@@H]1O[C@H](CO)[C@@H](O)[C@@H]1O 0

For the compound shown here, COC(=O)C[C@](O)(CCCC(C)(C)O)C(=O)O[C@@H]1C(OC)=C[C@]23CCCN2CCc2cc4c(cc2[C@H]13)OCO4 , give the reported drug sensitivity score. 25.1
